- assay_system: UniProtKB P04818
- Sequence (P04818 whole entry): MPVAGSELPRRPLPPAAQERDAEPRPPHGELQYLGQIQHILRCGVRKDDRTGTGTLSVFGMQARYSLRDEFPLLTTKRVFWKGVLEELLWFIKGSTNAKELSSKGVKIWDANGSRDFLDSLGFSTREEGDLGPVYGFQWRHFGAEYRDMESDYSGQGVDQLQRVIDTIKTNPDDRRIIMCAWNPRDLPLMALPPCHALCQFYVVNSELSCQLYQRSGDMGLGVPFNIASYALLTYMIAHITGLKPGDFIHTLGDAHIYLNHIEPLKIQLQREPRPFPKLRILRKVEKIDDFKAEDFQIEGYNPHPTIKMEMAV
measured_metric: pIC50
Scale: negative log10 of molar concentration, which is what pIC50 denotes.

The molecule `COc1ccc(OC)c(Sc2c(C)sc3nc(N)[nH]c(=O)c23)c1` on UniProtKB P04818: pIC50 was 5.34

----------
- assay_system: T. gondii DHFR (Toxoplasma gondii)
- Sequence (Q07422 whole entry): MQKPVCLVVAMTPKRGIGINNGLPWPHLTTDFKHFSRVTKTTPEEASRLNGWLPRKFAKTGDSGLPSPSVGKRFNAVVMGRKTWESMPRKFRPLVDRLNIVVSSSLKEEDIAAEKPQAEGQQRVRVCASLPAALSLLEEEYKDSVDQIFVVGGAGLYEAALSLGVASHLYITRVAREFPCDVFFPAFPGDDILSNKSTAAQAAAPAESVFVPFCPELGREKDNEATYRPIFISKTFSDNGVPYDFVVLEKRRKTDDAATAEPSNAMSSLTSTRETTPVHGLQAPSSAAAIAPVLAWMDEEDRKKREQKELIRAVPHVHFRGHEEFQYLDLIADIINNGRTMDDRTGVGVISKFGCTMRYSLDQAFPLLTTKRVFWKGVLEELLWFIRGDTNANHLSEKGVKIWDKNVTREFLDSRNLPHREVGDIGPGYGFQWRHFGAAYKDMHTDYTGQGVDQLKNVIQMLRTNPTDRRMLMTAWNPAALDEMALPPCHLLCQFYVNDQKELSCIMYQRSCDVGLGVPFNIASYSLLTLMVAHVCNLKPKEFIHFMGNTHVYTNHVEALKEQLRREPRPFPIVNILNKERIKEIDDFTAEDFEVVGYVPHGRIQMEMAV
- test_details: biochemical
measured_metric: IC50 (nM)
# value in nM; strip the unit string

Lab book: IC50 of `COc1ccc(OC)c(Sc2c(C)sc3nc(N)[nH]c(=O)c23)c1` noted as 56

----------
- assay_system: E. coli TS (Escherichia coli, UniProt P0A884)
- Sequence (P0A884 whole entry): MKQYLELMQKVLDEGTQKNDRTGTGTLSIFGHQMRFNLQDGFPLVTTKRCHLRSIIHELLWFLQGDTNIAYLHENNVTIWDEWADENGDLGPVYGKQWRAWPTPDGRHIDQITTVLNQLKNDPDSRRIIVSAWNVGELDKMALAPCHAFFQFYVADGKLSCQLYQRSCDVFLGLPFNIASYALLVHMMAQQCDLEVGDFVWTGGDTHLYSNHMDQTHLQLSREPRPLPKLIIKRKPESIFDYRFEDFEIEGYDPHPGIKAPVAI
measured_metric: IC50

The molecule COc1ccc(OC)c(Sc2c(C)sc3nc(N)[nH]c(=O)c23)c1 [Compound 8] on E. coli TS (Escherichia coli, UniProt P0A884): IC50 was > 23 µM

----------
- assay_system: T. gondii TS (Toxoplasma gondii)
- Sequence (Q07422 whole entry): as the sequence (Q07422 whole entry) above
- test_details: biochemical
measured_metric: IC50

The compound COc1ccc(OC)c(Sc2c(C)sc3nc(N)[nH]c(=O)c23)c1 [Compound 8] on T. gondii TS (Toxoplasma gondii): IC50 was > 23 µM
